Each recorded value in this set is attributed to patent US10168342B2.

- testedSystem: AEA-DA lipid probe targets in Neuro2a cells (Mus musculus)
- studyConditions: competitor 25 μM
Consider the following molecules; for each one, report its SILAC ratio Ociad1.

SILAC ratio Ociad1 for AEA-DA lipid probe targets in Neuro2a cells (Mus musculus) with input CN1CCN(C(=O)c2c(-c3ccccc3)c3cc([N+](=O)[O-])ccc3n2C)CC1 [KML110] equals 1.3

SILAC ratio Ociad1 for AEA-DA lipid probe targets in Neuro2a cells (Mus musculus) with input O=C(/C=C/c1cccnc1)NCCCCC1CCN(C(=O)c2ccccc2)CC1 [FK-866, reference compound] equals 1.1

SILAC ratio Ociad1 for AEA-DA lipid probe targets in Neuro2a cells (Mus musculus) with input C=CCN(C)CCCCCCOc1ccc(C(=O)c2ccc(Br)cc2)c(F)c1 [Ro 48-8071, reference compound] equals 1.0

SILAC ratio Ociad1 for AEA-DA lipid probe targets in Neuro2a cells (Mus musculus) with input CN1CCN(C(=O)c2[nH]c3ccc([N+](=O)[O-])cc3c2-c2ccccc2)CC1 [MJN228] equals 1.4

====

- testedSystem: AEA-DA lipid probe targets in Neuro2a cells (Mus musculus)
- studyConditions: competitor 25 μM
valueType: SILAC ratio, Nsdhl
Answer field: number only, no words.

SILAC ratio, Nsdhl for AEA-DA lipid probe targets in Neuro2a cells (Mus musculus) with input CN1CCN(C(=O)c2c(-c3ccccc3)c3cc([N+](=O)[O-])ccc3n2C)CC1 [KML110] equals 1.7

SILAC ratio, Nsdhl for AEA-DA lipid probe targets in Neuro2a cells (Mus musculus) with input O=C(/C=C/c1cccnc1)NCCCCC1CCN(C(=O)c2ccccc2)CC1 [FK-866, reference compound] equals 1.3

SILAC ratio, Nsdhl for AEA-DA lipid probe targets in Neuro2a cells (Mus musculus) with input CN1CCN(C(=O)c2[nH]c3ccc([N+](=O)[O-])cc3c2-c2ccccc2)CC1 [MJN228] equals 2.3

SILAC ratio, Nsdhl for AEA-DA lipid probe targets in Neuro2a cells (Mus musculus) with input C=CCN(C)CCCCCCOc1ccc(C(=O)c2ccc(Br)cc2)c(F)c1 [Ro 48-8071, reference compound] equals 1.3

====

- testedSystem: AEA-DA lipid probe targets in Neuro2a cells (Mus musculus, UniProt P52293)
- studyConditions: competitor 25 μM
valueType: SILAC ratio Kpna2
Answer field: number only, no words.

Recorded SILAC ratio Kpna2 (molecule C=CCN(C)CCCCCCOc1ccc(C(=O)c2ccc(Br)cc2)c(F)c1 [Ro 48-8071, reference compound] ): 0.9

Recorded SILAC ratio Kpna2 (molecule CN1CCN(C(=O)c2c(-c3ccccc3)c3cc([N+](=O)[O-])ccc3n2C)CC1 ): 1.2

Recorded SILAC ratio Kpna2 (molecule CN1CCN(C(=O)c2[nH]c3ccc([N+](=O)[O-])cc3c2-c2ccccc2)CC1 ): 1.2

Recorded SILAC ratio Kpna2 (molecule O=C(/C=C/c1cccnc1)NCCCCC1CCN(C(=O)c2ccccc2)CC1 [FK-866, reference compound] ): 1.2

====

- testedSystem: AEA-DA lipid probe targets in Neuro2a cells (Mus musculus, UniProt Q8C0L6)
- Sequence (Q8C0L6 whole entry): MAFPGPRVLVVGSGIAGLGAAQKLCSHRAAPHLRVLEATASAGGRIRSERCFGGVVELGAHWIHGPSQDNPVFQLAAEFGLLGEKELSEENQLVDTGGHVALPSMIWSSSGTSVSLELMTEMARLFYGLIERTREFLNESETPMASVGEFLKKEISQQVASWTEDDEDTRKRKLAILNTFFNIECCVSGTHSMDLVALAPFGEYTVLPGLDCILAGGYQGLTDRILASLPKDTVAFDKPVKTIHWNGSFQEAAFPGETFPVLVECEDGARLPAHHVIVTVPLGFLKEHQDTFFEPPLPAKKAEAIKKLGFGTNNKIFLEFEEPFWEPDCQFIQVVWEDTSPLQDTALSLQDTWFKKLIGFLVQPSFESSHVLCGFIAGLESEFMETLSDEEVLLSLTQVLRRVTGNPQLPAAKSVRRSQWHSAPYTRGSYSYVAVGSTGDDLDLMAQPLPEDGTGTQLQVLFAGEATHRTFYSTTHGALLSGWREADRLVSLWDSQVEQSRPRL
- studyConditions: competitor 25 μM
Consider the following compounds; for each one, report its SILAC ratio, Paox.
Answer field: number only, no words.

SILAC ratio, Paox for AEA-DA lipid probe targets in Neuro2a cells (Mus musculus, UniProt Q8C0L6) with input O=C(/C=C/c1cccnc1)NCCCCC1CCN(C(=O)c2ccccc2)CC1 [FK-866, reference compound] equals 3.2

SILAC ratio, Paox for AEA-DA lipid probe targets in Neuro2a cells (Mus musculus, UniProt Q8C0L6) with input CN1CCN(C(=O)c2[nH]c3ccc([N+](=O)[O-])cc3c2-c2ccccc2)CC1 equals 3.2

SILAC ratio, Paox for AEA-DA lipid probe targets in Neuro2a cells (Mus musculus, UniProt Q8C0L6) with input CN1CCN(C(=O)c2c(-c3ccccc3)c3cc([N+](=O)[O-])ccc3n2C)CC1 equals 2.9

SILAC ratio, Paox for AEA-DA lipid probe targets in Neuro2a cells (Mus musculus, UniProt Q8C0L6) with input C=CCN(C)CCCCCCOc1ccc(C(=O)c2ccc(Br)cc2)c(F)c1 [Ro 48-8071, reference compound] equals 2.4
